B1: LINE1-full (parent)
chain: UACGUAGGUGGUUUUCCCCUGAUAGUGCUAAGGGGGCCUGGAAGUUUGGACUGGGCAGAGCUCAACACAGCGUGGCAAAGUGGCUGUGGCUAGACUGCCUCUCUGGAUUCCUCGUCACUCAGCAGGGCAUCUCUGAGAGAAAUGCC

variants of: B1; assay: self-cleavage, relative activity (ratio to wild type); higher = more cleavage; in vitro, sequencing; the parent is a self-cleaving ribozyme
// reported self-cleavage for each item listed

| VARIANT_DESIGNATION | self-cleavage |
| --- | --- |
| U13C U52C | 1.06 |
| G53A G88A | 0.07 |
| A22U G55A | 0.37 |
| A31G C90A | 0.12 |
| U20G A121G | 1.27 |
| U45C | 1.36 |
| G58C | 0.03 |
| U81A C123U | 1.01 |
| C66G | 0.04 |
| A6G C101A | 0.56 |
| U91G U119C | 0 |
| U5C G135A | 0.96 |
| A42G U46G | 1.02 |
| A65G U143C | 0.08 |
| A31U A42G | 1.46 |
| A79C A141G | 1.96 |
| U26C U108G | 2.12 |
| G4C A79G | 0.29 |
| A64U G114A | 0.41 |
| A57U A65U | 0.06 |
| U109A G122A | 1.63 |
| G8A G70A | 0.17 |
| U14C A136U | 1.42 |
| A107G | 1.46 |
| C99G | 0.76 |
| U14C C99U | 0.75 |
| U100A G126A | 1.03 |
| U39C C99U | 0.5 |
| A42G U134C | 1.36 |
| U20C G70U | 0.05 |
| U13A A94G | 0.19 |
| G33U G75A | 0.78 |
| U112C C113U | 1.28 |
| U12C C19U | 1.08 |
| U15A A141G | 1.35 |
| A107G A142G | 1.83 |
| U12C C38U | 1.16 |
| U12G A69G | 0.77 |
| U9A C19U | 0.71 |
| U9G U119C | 1.32 |
| A65G A142G | 0.06 |
| A50G C145A | 1.05 |
| G44A U52C | 1.32 |
| A6G U45G | 0.97 |
| U26C U39G | 0.65 |
| C17U U104C | 1.33 |
